system: biotinyl-Phe-oxazolone; experiment: self-aminoacylation, catalytic enhancement (BFO) (fold over background); higher = more active; k-Seq, kA / k0A0; sequences stand for … in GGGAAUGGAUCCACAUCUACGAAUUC…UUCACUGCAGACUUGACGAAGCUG
This sample holds only a part of the variants without activity.
readout.label: self-aminoacylation

{"columns": ["polymer.sequence", "experimental.value"],
 "data": [
  ["AUUCAGCUAAGUCAUCGGGUG [Fam2.2 aminoacylation ribozyme variant]", 24.6],
  ["AUACUUCAAACAAUCGGUCUG [Fam1A.1 aminoacylation ribozyme variant]", 14.7],
  ["CUACUUCAAACAAUGGGUCUA [Fam1A.1 aminoacylation ribozyme variant]", 0.65],
  ["AAGUUUGCUUAUUGUCGCAAG [Fam3.1 aminoacylation ribozyme variant]", 0.903],
  ["CUACUUCAAACGAUGGGUCUG [Fam1A.1 aminoacylation ribozyme variant]", 0.674],
  ["AUUCCCCUAGGUCAUCGGCUG [Fam2.2 aminoacylation ribozyme variant]", 30.9],
  ["CUACUUCAGACAAUCGGUCUU [Fam1A.1 aminoacylation ribozyme variant]", 1.11],
  ["AAGUUCGGUAAUAGUCGCAAG [Fam3.1 aminoacylation ribozyme variant]", 3.24]
]}

* * *

system: biotinyl-Phe-oxazolone; assay: self-aminoacylation, catalytic enhancement (BFO) (fold over background); higher = more active; k-Seq, kA / k0A0; sequences stand for … in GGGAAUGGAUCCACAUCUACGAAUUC…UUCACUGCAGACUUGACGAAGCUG
This sample holds only a part of the variants without activity.

{"columns": ["polymer.sequence", "self-aminoacylation"],
 "data": [
  ["UCACACUUUAAGCAAUCGGUC [Fam1B.1 aminoacylation ribozyme variant]", 0.841],
  ["AAUACCCUGGUCAUCGAGUUA [Fam2.1 aminoacylation ribozyme variant]", 2.17],
  ["AAGUUUGCAAAUAUUCGCAAG [Fam3.1 aminoacylation ribozyme variant]", 1.3],
  ["AUACACCUAGGUCAUCGGGGG [Fam2.2 aminoacylation ribozyme variant]", 4.96],
  ["AAGUUUGCUAUUAGUCGAAAG [Fam3.1 aminoacylation ribozyme variant]", 1.06],
  ["AUUCACCUAGGACAUCGCGUG [Fam2.2 aminoacylation ribozyme variant]", 26.8],
  ["CUACUCCACACAAUCGGUCUG [Fam1A.1 aminoacylation ribozyme variant]", 0.891],
  ["CUACACUUCAAGCAAUCGGUG [Fam1B.1 aminoacylation ribozyme variant]", 5.79],
  ["AUACACCUAGGGCAUCGGGUG [Fam2.2 aminoacylation ribozyme variant]", 17.1]
]}

* * *

system: biotinyl-Phe-oxazolone; test: self-aminoacylation, catalytic enhancement (BFO) (fold over background); higher = more active; k-Seq, kA / k0A0; sequences stand for … in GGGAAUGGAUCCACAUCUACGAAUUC…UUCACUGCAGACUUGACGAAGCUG
Variants at the floor of the assay were thinned out.
# label = 1 if self-aminoacylation >= 2 else -1

{"columns": ["polymer.sequence", "class.label"],
 "data": [
  ["UCAAACUUCAAGCAAUCGGUC [Fam1B.1 aminoacylation ribozyme variant]", 1],
  ["CUACUUCCAACAAUUGGUCUG [Fam1A.1 aminoacylation ribozyme variant]", -1],
  ["AAGUUUGCUAAUAGGCUCAAG [Fam3.1 aminoacylation ribozyme variant]", -1],
  ["AUUACCCUGGUAAUCGAGUGA [Fam2.1 aminoacylation ribozyme variant]", 1],
  ["AUUCCCCUAGGUAAUCGGGUG [Fam2.2 aminoacylation ribozyme variant]", 1],
  ["AUUCACCUACGUCAUCGGCUG [Fam2.2 aminoacylation ribozyme variant]", 1],
  ["CCACACUACAAGCAAUCGUUC [Fam1B.1 aminoacylation ribozyme variant]", -1],
  ["CUACACUUCAACCAAUCGGUC [Fam1B.1 aminoacylation ribozyme variant]", 1],
  ["AAGUCUGCUAAUAGCCGCAAG [Fam3.1 aminoacylation ribozyme variant]", 1],
  ["CUUGUUCAAACAAUCGGUCUG [Fam1A.1 aminoacylation ribozyme variant]", 1],
  ["CUACUUUAAACAAUCGGUGUG [Fam1A.1 aminoacylation ribozyme variant]", -1],
  ["CCCCACUUCAAGCAAUGGGUC [Fam1B.1 aminoacylation ribozyme variant]", -1],
  ["AUUACCCUGGUUAUCGCGUGA [Fam2.1 aminoacylation ribozyme variant]", 1],
  ["AUUCACCGAGGUAAUCGGGUG [Fam2.2 aminoacylation ribozyme variant]", 1],
  ["CUACUUCAAACCAUCGGACUG [Fam1A.1 aminoacylation ribozyme variant]", -1],
  ["AGACACCUAGGUCAUCGGGUG [Fam2.2 aminoacylation ribozyme variant]", 1],
  ["AGGCUUGCUAAUAGUCGCAAG [Fam3.1 aminoacylation ribozyme variant]", 1],
  ["AAGUUUGCUUAUAGUCGCAAA [Fam3.1 aminoacylation ribozyme variant]", 1]
]}

Entry source: the supplement of paper PMC9233669
